target: yeast α-glucosidase enzyme; assay: α-glucosidase inhibitory assay by the chromogenic method; assay type: biochemical; settings: p-nitrophenyl-α-D-glucopyranoside substrate, pH 7.00
Note to self: IC50 value under 30 µg/mL means condition met, ties and anything higher get condition not met.

CC(C)CNC(=O)C=CC=CCCCCCCCCC=Cc1ccc2c(c1)OCO2 [brachystamide-B]
condition not met
CCCCCCCCCCC=Cc1ccc2c(c1)OCO2 [pipataline, 5-(1-dodecenyl)-1,3-benzodioxol]
condition met
CCCCCC=CC=CC(=O)NCC(C)C [pellitorine, N-(2-methylpropyl)-2,4-decadienamide]
condition not met
c1cc2c(cc1[C@H]1OC[C@H]3[C@@H]1CO[C@@H]3c1ccc3c(c1)OCO3)OCO2 [sesamin]
condition not met

Problem: IC50 value strictly < 30 µg/mL for this compound? CC(C)CNC(=O)/C=C/C=C/CCCCCC/C=C/c1ccc2c(c1)OCO2 [guineensine]
Result: condition met
